- assayTarget: T1, soluble human GPNMB (recombinant extracellular domain) (human, UniProt Q14956 23-498)
- T1 construct: also called huGPNMB; recombinant human GPNMB extracellular domain; not shown: C-terminal polyhistidine or Avi-His tag
- T1 sequence: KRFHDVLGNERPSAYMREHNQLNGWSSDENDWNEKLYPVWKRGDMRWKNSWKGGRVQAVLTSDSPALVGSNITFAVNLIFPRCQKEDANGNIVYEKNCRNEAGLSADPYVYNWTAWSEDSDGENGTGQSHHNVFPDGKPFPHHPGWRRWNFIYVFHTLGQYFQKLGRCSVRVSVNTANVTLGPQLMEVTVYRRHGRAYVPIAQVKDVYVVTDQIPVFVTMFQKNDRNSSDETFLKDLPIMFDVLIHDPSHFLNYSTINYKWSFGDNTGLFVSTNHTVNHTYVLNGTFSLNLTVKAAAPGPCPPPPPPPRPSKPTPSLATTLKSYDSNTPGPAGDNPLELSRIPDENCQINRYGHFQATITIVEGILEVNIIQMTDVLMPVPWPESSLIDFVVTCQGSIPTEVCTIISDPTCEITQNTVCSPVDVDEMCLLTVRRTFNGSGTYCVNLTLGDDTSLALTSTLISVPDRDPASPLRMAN
- assayDetails: SPR Carterra, Ab immobilized
measuredMetric: kon
Param answer (str): number followed by unit.

Completed entries (count: 2):
binder	recordedValue
anti-GPNMB antibody GPN-03 (antibody, human IgG1, V domains shown, chimeric) VH: QVQLQQSGPELVKPGASVKLSCKASGYTFTNYYMYWVKQRPGQGLEWIGEINPRNGGTNFNEKFKSKATLTVDKSSSTAYMQLSSLTFEDSAVYYCTTGLAYWGQGTLVTVSA VL: DVVMTQTPLSLPVSLGDQASISCRSSQSLVHSDGNTYLHWYLQKPGQSPKLLIYKVSTRFSGVPDRFSGSGSGTDFTLKISRVEAEDLGVYFCSQSTHVPWTFGGGTKLEIK	100000 M⁻¹ s⁻¹
anti-GPNMB antibody GPN-06 (antibody, human IgG1, V domains shown, chimeric) VH: QVQLQQSGAELVKPGASVKLSCKASGYTFTNYYMYWVKQRPGQGLEWIGEINTRNGGTNFNEKFKSKATLTVDKSSSTAYMQLSSLTSEDSAVYYCTTGFAYWGQGTLVTVSA VL: DIQMTQSPASLSASVGETVTITCRASENIYSYLVWYQQNQGKSPQLLVYNAKTLAEGVPSRFSGSGSGTQFSLKINSLQPEDFGTYYCQHHYGTPFTFGSGTKLEIK	54000 M⁻¹ s⁻¹

I am curious: what kon value has been reported for anti-GPNMB antibody GPN-30 (antibody, human IgG1, V domains shown, chimeric) VH: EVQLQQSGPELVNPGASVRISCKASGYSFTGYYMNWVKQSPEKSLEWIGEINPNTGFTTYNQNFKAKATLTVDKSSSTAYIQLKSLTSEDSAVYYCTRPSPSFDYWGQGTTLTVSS VL: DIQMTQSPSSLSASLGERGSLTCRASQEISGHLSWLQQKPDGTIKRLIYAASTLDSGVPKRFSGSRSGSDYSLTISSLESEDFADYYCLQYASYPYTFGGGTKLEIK ?
26000 M⁻¹ s⁻¹
